- assayTarget: AAV9 viral particles (adeno-associated virus 9)
- testDescription: SPR (Biacore), polypeptide amine-coupled to CM5, AAV9 analyte; response normalized to SEQ ID NO:80
propertyLabel: Normalized AAV9 binding capacity (%)

[Q] Dear colleague, please send me the reported Normalized AAV9 binding capacity (%) for vh247 (SEQ ID NO:89) (VHH) VHH: QVQLVQSGGGSVQAGGSLRLSCTISGRTLSDYTMGWFRQRPGKEREFVAAISWSGAYTKYADSVKGRFTISRDNAKNTVYLQMNSLKPEDTAVYYCAAGPTGLLSKKATPADYDYWGQGTQVTVSS when you can.
[A] 106%

[Q] Dear colleague, please send me the reported Normalized AAV9 binding capacity (%) for vh256 (SEQ ID NO:100) (VHH) VHH: QVQLQQSGGGSVQAGGSLRLSCTVSGRTLSDYTMGWFRQRPGKEREFVAAISWSGAYTKYADSVKGRFTISRDNAKNTVYLQMNSLKPEDTAVYYCAAGPTGLLSKKATPADYDYWGQGTQVTVSS when you can.
[A] 102%

[Q] Dear colleague, please send me the reported Normalized AAV9 binding capacity (%) for vh118 (SEQ ID NO:80), Example 3 construct (VHH) VHH: QVQLQQSGGGSVQAGGSLRLSCTISGRTLSDYTMGWFRQRPGKEREFVAAISWSGAYTKYADSVKGRFTISRDNAKNTVYLQMNSLKPEDTAVYYCAAGPTGLLSKKATPADYDYWGQGTQVTVSS when you can.
[A] 100%

[Q] Dear colleague, please send me the reported Normalized AAV9 binding capacity (%) for vh250 (SEQ ID NO:92) (VHH) VHH: QVQLQQSGGGSVQSGGSLRLSCTISGRTLSDYTMGWFRQRPGKEREFVAAISWSGAYTKYADSVKGRFTISRDNAKNTVYLQMNSLKPEDTAVYYCAAGPTGLLSKKATPADYDYWGQGTQVTVSS when you can.
[A] 96%
